target_system: fusion protein PRF
Sequence (chain, as listed by the source): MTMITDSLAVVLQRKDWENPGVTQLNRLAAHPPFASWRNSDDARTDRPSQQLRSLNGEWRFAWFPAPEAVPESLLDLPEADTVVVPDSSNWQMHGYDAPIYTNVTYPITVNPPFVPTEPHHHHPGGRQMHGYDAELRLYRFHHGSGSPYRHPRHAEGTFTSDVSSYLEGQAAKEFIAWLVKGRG
measurement_kind: relative cleavage efficiency

- OmpT protease variant OmpT D97Q (protein) STETLSFTPDNINADISLGTLSGKTKERVYLAEEGGRKVSQLDWKFNNAAIIKGAINWDLMPQISIGAAGWTTLGSRGGNMVDQDWMDSSNPGTWTQESRHPDTQLNYANEFDLNIKGWLLNEPNYRLGLMAGYQESRYSFTARGGSYIYSSEEGFRDDIGSFPNGERAIGYKQRFKMPYIGLTGSYRYEDFELGGTFKYSGWVESSDNDEHYDPGKRITYRSKVKDQNYYSVAVNAGYYVTPNAKVYVEGAWNRVTNKKGNTSLYDHNNNTSDYSKNGAGIENYNFITTAGLKYTF: < 3%
- OmpT protease variant OmpT D97S (protein) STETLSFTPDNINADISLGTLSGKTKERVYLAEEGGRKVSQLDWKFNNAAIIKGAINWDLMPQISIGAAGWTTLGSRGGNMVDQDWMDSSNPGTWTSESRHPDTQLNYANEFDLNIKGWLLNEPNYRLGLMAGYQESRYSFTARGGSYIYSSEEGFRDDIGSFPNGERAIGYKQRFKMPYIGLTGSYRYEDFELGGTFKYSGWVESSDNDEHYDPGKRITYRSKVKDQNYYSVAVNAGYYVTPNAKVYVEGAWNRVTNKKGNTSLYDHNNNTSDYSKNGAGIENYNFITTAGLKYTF: < 3%
- OmpT protease variant OmpT D97Y (protein) STETLSFTPDNINADISLGTLSGKTKERVYLAEEGGRKVSQLDWKFNNAAIIKGAINWDLMPQISIGAAGWTTLGSRGGNMVDQDWMDSSNPGTWTYESRHPDTQLNYANEFDLNIKGWLLNEPNYRLGLMAGYQESRYSFTARGGSYIYSSEEGFRDDIGSFPNGERAIGYKQRFKMPYIGLTGSYRYEDFELGGTFKYSGWVESSDNDEHYDPGKRITYRSKVKDQNYYSVAVNAGYYVTPNAKVYVEGAWNRVTNKKGNTSLYDHNNNTSDYSKNGAGIENYNFITTAGLKYTF: less than 3.0%
- OmpT protease variant OmpT D97E (protein) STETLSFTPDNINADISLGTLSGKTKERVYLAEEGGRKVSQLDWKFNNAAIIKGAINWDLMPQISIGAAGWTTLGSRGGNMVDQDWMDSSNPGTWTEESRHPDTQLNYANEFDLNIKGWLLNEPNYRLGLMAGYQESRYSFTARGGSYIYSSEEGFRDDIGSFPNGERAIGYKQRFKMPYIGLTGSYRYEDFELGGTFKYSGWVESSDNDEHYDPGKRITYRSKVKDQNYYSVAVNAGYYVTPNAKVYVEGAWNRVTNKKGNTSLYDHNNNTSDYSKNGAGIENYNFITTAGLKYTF: 3.4%
- OmpT protease variant OmpT D97P (protein) STETLSFTPDNINADISLGTLSGKTKERVYLAEEGGRKVSQLDWKFNNAAIIKGAINWDLMPQISIGAAGWTTLGSRGGNMVDQDWMDSSNPGTWTPESRHPDTQLNYANEFDLNIKGWLLNEPNYRLGLMAGYQESRYSFTARGGSYIYSSEEGFRDDIGSFPNGERAIGYKQRFKMPYIGLTGSYRYEDFELGGTFKYSGWVESSDNDEHYDPGKRITYRSKVKDQNYYSVAVNAGYYVTPNAKVYVEGAWNRVTNKKGNTSLYDHNNNTSDYSKNGAGIENYNFITTAGLKYTF: less than 3.0%

All figures here come from patent US20070077617.
